- Test system: Plasmopara viticola
- ASSAY_NOTES: Plasmopara test (grapevine) / protective
- Assay type: in vivo
- MEASUREMENT_PARAMETERS: young grapevine plants sprayed, active ingredient concentration 10 ppm; evaluation 6 days after inoculation; 100% = no infection
% eff. reference

Illustrative cases are given below, each with its answer.
- COMPOUND: "O=C(Cn1nc(C(F)F)cc1C(F)F)N1CCC(c2nc(C3=NOC(C(F)c4c(F)cccc4F)C3)cs2)CC1 (centres unmarked) [I-17]"
  % eff.: "100%"
- COMPOUND: "O=C(Cn1nc(C(F)F)cc1C(F)F)N1CCC(c2nc(C3=NOC(COc4ccccc4Cl)C3)cs2)CC1 (centres unmarked) [I-71]"
  % eff.: "100%"
- COMPOUND: "CC(C)(c1c(F)cccc1F)C1CC(c2csc(C3CCN(C(=O)Cn4nc(C(F)F)cc4C(F)F)CC3)n2)=NO1 (centres unmarked) [I-66]"
  % eff.: "100%"
- COMPOUND: "Cc1ccc(C)c(NC(=S)N2CCC(c3nc(C4=NOC(C(F)c5c(F)cccc5F)C4)cs3)CC2)c1 (centres unmarked) [I-32]"
  % eff.: "78%"
- COMPOUND: "Cc1cc(C(F)F)nn1CC(=O)N1CCC(c2nc(C3=NOC(COc4c(Cl)cccc4Cl)C3)cs2)CC1 (centres unmarked) [I-45]"
  % eff.: "100%"

Which % eff. reading was recorded for the compound O=C(Cn1nc(C(F)F)cc1C(F)F)N1CCC(c2nc(C3=NOC(COc4c(F)cccc4Cl)C3)cs2)CC1 (centres unmarked) [I-74] ? 100%

Give the measured % eff. of O=C(Cn1nc(C(F)F)cc1C(F)F)N1CCC(c2nc(C3=NOC(CSc4ccccc4Br)C3)cs2)CC1 (centres unmarked) [I-63] . 96%

Which % eff. is reported for this compound? Cc1cc(C(F)(F)F)nn1CC(=O)N1CCC(c2nc(C3=NOC(C(F)c4ccccc4)C3)cs2)CC1 (centres unmarked) [I-19] 94%

----------
Quick reference for % eff. among some compounds
- Test system: Plasmopara viticola
- ASSAY_NOTES: Plasmopara test (grapevine) / protective
- Type: in vivo
- MEASUREMENT_PARAMETERS: young grapevine plants sprayed, active ingredient concentration 10 ppm; evaluation 6 days after inoculation; 100% = no infection
- Method: Plasmopara Test (Grapevine)/Protective To produce an appropriate active ingredient formulation, 1 part by weight of active ingredient is mixed with the specified amounts of solvent and emulsifier, and the concentrate is diluted with water to the desired concentration. To test for protective efficacy, young plants are sprayed with the active ingredient formulation at the stated application rate. […]
Numbers only here, please. The scale is %.

- COMPOUND: "FC(F)c1cc(C(F)F)n(CC(=S)N2CCC(c3nc(C4=NOC(C(F)(F)c5ccccc5)C4)cs3)CC2)n1 (stereo not drawn) [I-31]"
  % eff. [%]: 85
- COMPOUND: "Cc1ccc(C)c(NC(=S)N2CCC(c3nc(C4=NOC(C(F)(F)c5ccccc5)C4)cs3)CC2)c1 (stereo not drawn) [I-21]"
  % eff. [%]: 85

State its % eff. on Plasmopara viticola: O=C(Nc1cc(C(F)F)ccc1C(F)F)N1CCC(c2nc(C3=NOC(C(F)(F)c4c(F)cccc4F)C3)cs2)CC1 (stereo not drawn) [I-35] 100

What reported % eff. corresponds to Fc1cccc(F)c1C(F)(F)C1CC(c2csc(C3CCN(C(=S)Cn4nc(C(F)F)cc4C(F)F)CC3)n2)=NO1 (stereo not drawn) [I-42] on Plasmopara viticola? 100

Look up % eff. with Plasmopara viticola for this compound: CC(C)(c1c(F)cccc1F)C1CC(c2csc(C3CCN(C(=O)Nc4cc(C(F)F)ccc4C(F)F)CC3)n2)=NO1 (stereo not drawn) [I-68] 96

Given the entry Cc1ccc(C)c(NC(=S)N2CCC(c3nc(C4=NOC(C(F)c5ccccc5)C4)cs3)CC2)c1 (stereo not drawn) [I-39] , what % eff. was observed with Plasmopara viticola? 78

Param readout = % eff.; param system = Plasmopara viticola; param query = CC(O)(c1c(F)cccc1F)C1CC(c2csc(C3CCN(C(=O)Cn4nc(C(F)F)cc4C(F)F)CC3)n2)=NO1 (stereo not drawn) [I-47] ; response: value 95

Form entry - test system: Plasmopara viticola; read-out: % eff.; compound: O=C(Cn1nc(C(F)F)cc1C(F)F)N1CCC(c2nc(C3=NOC(CSc4ccccc4F)C3)cs2)CC1 (stereo not drawn) [I-55] 100

Record O=C(Cn1nc(C(F)F)cc1C(F)F)N1CCC(c2nc(C3=NOC(C(F)(F)c4c(F)cccc4F)C3)cs2)CC1 (stereo not drawn) [I-22] : what is its % eff. with Plasmopara viticola? 100

Plasmopara viticola / % eff. / O=C(Cn1nc(C(F)F)cc1C(F)F)N1CCC(c2nc(C3=NOC(C(F)c4ccccc4)C3)cs2)CC1 (stereo not drawn) [I-5] : value? 100
